Target: GST-tagged KRAS-G12D (2-169) (Homo sapiens, UniProt P01116, G12D)
Construct: GST-tagged KRAS-G12D (2-169, Reaction Biology, MSC-11-539); purchased Reaction Biology MSC-11-539 (KRAS G12D); MSC-11-502 (SOS1cat)
Sequence (P01116 2-169 isoform P01116-2 G12D): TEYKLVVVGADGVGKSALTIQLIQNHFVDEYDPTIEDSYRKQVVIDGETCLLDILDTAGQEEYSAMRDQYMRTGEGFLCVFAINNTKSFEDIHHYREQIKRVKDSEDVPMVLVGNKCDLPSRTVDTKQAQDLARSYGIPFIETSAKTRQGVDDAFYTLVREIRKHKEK
Assay: Nucleotide exchange assay (NEA), SOS-mediated, HTRF, KRAS G12D
Type: biochemical
Settings: Table 4; IC50 extracted at 30 min
pIC50: −log10 of the molar value.
reported property: pIC50

Here is how some compounds turned out for pIC50.
1. N#Cc1c(N2CCn3nncc3C2)nc(OC[C@@]23CCCN2C[C@H](F)C3)nc1N1CC2(CCc3sc(N)c(C#N)c32)C1
6.00 to 7.00
2. N#Cc1c(N2C[C@H]3CC[C@@H](C2)N3)nc(OCC2(CN3C[C@@H](F)[C@@H](F)C3)CC2)nc1N1CC2(CCc3sc(N)c(C#N)c32)C1
7.00 to 8.00

Please find the next compound below.
Give the measured pIC50 of "N#Cc1c(N2C[C@H]3CC[C@@H](C2)N3)nc(OCc2n[nH]cc2C(F)(F)F)nc1N1CC2(CCc3sc(N)c(C#N)c32)C1" .
7.00 to 8.00
